Tested on: pMLC2
Experiment: Cellular PD assay, pMLC2 in PASMC (western blot)
Assay type: cell-based
Settings: PASMC, 0.5 h; Human Pulmonary Artery Smooth Muscle Cells, 30 min incubation
Rule: IC50 below 40 nM gives Met. Equal to or above 40 nM gives Not met.

compound | category
NCC(C(=O)Nc1cccc2c(-c3cn[nH]c3)c[nH]c12)c1cccnc1 (single isomer, unassigned) [Example 32] | Not met
COc1cccc(C(CN)NC(=O)c2cccc3c(-c4cn[nH]c4)c[nH]c23)c1 (single isomer, unassigned) | Met
NCC(C(=O)Nc1cccc2c(-c3cn[nH]c3)c[nH]c12)c1cccnc1 (racemic) [Example 31] | Met

Prompt: Quick check: does COc1cccc([C@@H](N)C(=O)Nc2cccc3c(-c4cn[nH]c4)c[nH]c23)c1 have IC50 under 40 nM?
Response: Met

Prompt: Quick check: does NCC(Cc1ccccc1)C(=O)Nc1cccc2c(-c3cn[nH]c3)c[nH]c12 (racemic) have IC50 under 40 nM?
Response: Met

Prompt: Quick check: does NC[C@@H](NC(=O)c1cccc2c(-c3cn[nH]c3)n[nH]c12)c1ccccc1 have IC50 under 40 nM?
Response: Met

Prompt: Quick check: does NC[C@@H](C(=O)Nc1cccc2c(-c3cn[nH]c3)c[nH]c12)c1ccc(COC(=O)CCCCCO[N+](=O)[O-])cc1 have IC50 under 40 nM?
Response: Met
